# Measured Target: Alkaline phosphatase, placental type (Homo sapiens, UniProt P05187)
# Sequence (P05187 whole entry, looked up): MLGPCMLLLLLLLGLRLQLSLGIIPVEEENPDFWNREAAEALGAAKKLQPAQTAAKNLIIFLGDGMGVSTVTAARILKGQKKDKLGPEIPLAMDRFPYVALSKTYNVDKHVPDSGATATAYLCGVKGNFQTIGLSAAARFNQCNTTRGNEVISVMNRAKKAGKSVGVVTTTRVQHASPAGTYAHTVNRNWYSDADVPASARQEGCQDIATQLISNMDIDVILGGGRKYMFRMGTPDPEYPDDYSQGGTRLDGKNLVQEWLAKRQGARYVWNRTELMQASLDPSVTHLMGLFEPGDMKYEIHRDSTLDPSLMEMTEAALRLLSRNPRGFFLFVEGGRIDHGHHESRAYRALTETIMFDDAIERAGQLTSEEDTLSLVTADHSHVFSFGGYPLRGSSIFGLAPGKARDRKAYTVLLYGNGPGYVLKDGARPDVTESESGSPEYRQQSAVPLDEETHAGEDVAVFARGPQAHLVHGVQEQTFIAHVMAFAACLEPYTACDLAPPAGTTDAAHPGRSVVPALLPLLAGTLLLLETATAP
# Method Notes: PLAP enzyme inhibitors, dose response, selectivity assay for mouse IAP inhibitor project, biochemical, uHTS hits (AID 488879)
Each record here notes measured IC50.

{"Compound": "Cc1ccc(Cl)c2c1NC(=O)/C2=C1/NC(=S)NC1=O", "Outcome Measure": "IC50", "Measured Value": "> 100 µM"}

Req: Request the reported IC50 associated with "NS(=O)(=O)c1cc(C(=O)NNC2=c3ccccc3=NC2=O)ccc1Cl"
Resp: > 100 µM

Req: Try the compound CC1NON=C1C(=O)NN=CC1=CC(=O)C(=O)C=C1 (stereo unspecified)
Resp: 18 µM

----------
# Measured Target: Alkaline phosphatase, placental type (Homo sapiens, UniProt P05187)
# Method Notes: PLAP enzyme inhibitors, dose response, selectivity assay for mouse IAP inhibitor project, biochemical, uHTS hits (AID 488879)
pIC50: −log10 of the molar value.
Each record here notes measured pIC50.

{"Compound": "Nc1nnc(CC(=O)N/N=C/C2C=C([N+](=O)[O-])C=C(Br)C2=O)s1 (stereo not drawn)", "pIC50": "< 4.00"}

Req: Request the reported pIC50 associated with C#CCOCCOCCOCCNc1nc(N2CCN(C(=O)CCCCCCCCCCNC(=O)[C@H]([C@@H](C)CC)n3cc(CCCCN=C(N)N)nn3)CC2)nc(N2CCN(C(=O)CCCCCCCCCCNC(=O)[C@@H]([C@H](C)O)n3cc(C)nn3)CC2)n1 [GT-RI]
Resp: < 4.00

Req: Try the compound O=c1cc(O)cc2oc(-c3ccc(O)c(O)c3)c(O[C@@H]3O[C@H](CO)[C@@H](O)[C@H](O)[C@H]3O)c(O)c1-2 [Quercetin 3-O-beta-D-glucoside]
Resp: < 4.00

----------
# Measured Target: Alkaline phosphatase, placental type (Homo sapiens)
# Method Notes: PLAP enzyme inhibitors, dose response, selectivity assay for mouse IAP inhibitor project, biochemical, uHTS hits (AID 488879)
Each record here notes measured IC50.

{"Molecule": "C#CCOCCOCCOCCNc1nc(N2CCN(C(=O)CCCCCCCCCCNC(=O)[C@@H](CCSC)n3cc(CCO)nn3)CC2)nc(N2CCN(C(=O)CCCCCCCCCCNC(=O)[C@H]([C@@H](C)CC)n3cc(CCCCCN)nn3)CC2)n1 [MLS002153719]", "IC50": "> 100 µM"}
{"Molecule": "Oc1ccc(C=Nn2c(O)csc2=S)c(O)c1O", "IC50": "> 100 µM"}

Here is another molecule to look at.
Req: Given the entry O=C1C=CC(C=NNC(=S)Nc2ccccc2[N+](=O)[O-])C=C1O (stereo not drawn) [MLS000417596] , what IC50 was observed with Alkaline phosphatase, placental type (Homo sapiens)?
Resp: > 100 µM
